src = paper PMC5540273

System: MEK1
Construct: gene MAP2K1
Test settings: concentration: 1 μM, replicates: in singlicate; n = 1
Value type: %Inh (%)
Give bare numbers, in %.

In [3]: df
Out[3]:
                               input_smiles  test_result
0      Nc1nc(-c2ccccn2)c(-c2ccnc3ccccc23)s1            8
1   CSc1ccc(NC2=C(c3ccccc3Cl)C(=O)NC2=O)cc1           14
2   O=C(Nc1ccccc1)Nc1ccc(Oc2ccc3nccn3n2)cc1           17
3  COc1ccc(NC(=O)Nc2ccc(C)c(-c3ccc(C(=O)Nc4ccncc4)cc3)c2)cc1            0
4                CCn1c(-c2ccncc2)nc2cnccc21            5

State recorded %Inh for all listed compounds.
1. OCCOCCn1ccc2ncnc(Nc3ccc(Oc4cccc(Cl)c4)c(Cl)c3)c21
2. Cl.O=S(=O)(c1cccc(F)c1)c1ccc(Nc2ncnc3cc(Br)sc23)cc1Cl
3. CSc1nn2c(=O)cc(N3CCOCC3)nc2n1Cc1cccc(Cl)c1Cl
4. Cc1cc(N2CCC(NS(=O)(=O)c3ccc(F)cc3)CC2)nc(Nc2cccc(C#N)c2)n1.O=C(O)C(F)(F)F

-- reply
1: 8; 2: 0; 3: 0; 4: 0

----------
Test system: CSNK1G1
Test settings: concentration: 1 μM, replicates: in singlicate; n = 1
Please respond with reported %Inh for every item in the list.
Remember to put the unit after the number in your answer.

State recorded %Inh for all listed molecules.
1. CCCc1ccc(S(=O)(=O)NC2CCN(c3ccnc(Nc4ccc(OC)cc4)n3)C2)cc1 (stereo not drawn) [GSK1379737]
2. Fc1cccc(COc2ccc(Nc3ncnc4cc[nH]c34)cc2Cl)c1
3. Cc1ccc(NC(=O)c2cccc(C#N)c2)cc1-c1ccc(C(=O)Nc2ccncc2)cc1 [GSK1398463]

-- reply
0%
18%
23%

----------
Please respond with reported %Inh for every item in the list.
System: CAMK1B
Test settings: concentration: 1 μM, replicates: in singlicate; n = 1
Answers are plain numbers, in %.

Please review the following examples before continuing.
>>> print(df.to_string())
                                   compound  test_result
0  Cc1cc(N2CCC(NS(=O)(=O)c3ccc(F)cc3)CC2)nc(Nc2cccc(C#N)c2)n1.O=C(O)C(F)(F)F            0
1  OCCOCCn1ccc2ncnc(Nc3ccc(Oc4cccc(Cl)c4)c(Cl)c3)c21            0
2  CCCc1ccc(S(=O)(=O)NC2CCN(c3ccnc(Nc4ccc(OC)cc4)n3)C2)cc1 (stereo not drawn)            0

State recorded %Inh for all listed compounds.
1. Nc1nc(-c2ccc3c(N)n[nH]c3c2)cc(N2CCC[C@@H](C(=O)Nc3ccccc3)C2)n1.O=C(O)C(F)(F)F.O=C(O)C(F)(F)F
2. CS(=O)(=O)CCNCc1nc(-c2ccc3ncnc(Nc4ccc(OCc5cccc(F)c5)c(Cl)c4)c3c2)cs1.Cl
3. CC(C)N1CCC(n2cnc(-c3ccc(F)cc3)c2-c2ccnc(N)n2)CC1
4. Nc1nc(-c2ccccn2)c(-c2ccnc3ccccc23)s1

-- reply
1. 26
2. 6
3. 0
4. 33

----------
System: JNK2
Construct: gene MAPK9
Test settings: concentration: 1 μM, replicates: in singlicate; n = 1
Please respond with reported %Inh for every item in the list.

Please review the following examples before continuing.
                                   compound  assay_target  test_result
0  O=C(c1ccc(-c2cc(-c3c[nH]nc3-c3ccccn3)ccn2)cc1)N1CCCC1          JNK2           0%
1  Cc1ccc(O)cc1Nc1cc(C(F)(F)F)nc2ccc(-c3ccncc3)cc12          JNK2           0%
2  Fc1cccc(COc2ccc(Nc3ncnc4nn5ccccc5c34)cc2Cl)c1          JNK2          10%

State recorded %Inh for all listed compounds.
1. Fc1cccc(COc2ccc(Nc3ncnc4cc[nH]c34)cc2Cl)c1
2. Clc1cc(Nc2ncnc3cc[nH]c23)ccc1OCc1ccccn1
3. Cl.c1ccc(Cn2ncc3cc(Nc4ncnc5ccccc45)ccc32)cc1
4. Cl.Fc1ccccc1COc1ccc(Nc2ncnc3ccc(-c4nnc(C(F)(F)F)o4)cc23)cc1Cl
5. Cc1cc(N2CCC(NS(=O)(=O)c3ccc(F)cc3)CC2)nc(Nc2cccc(C#N)c2)n1.O=C(O)C(F)(F)F
6. Oc1ccc2ncnc(Nc3ccc(OCc4ccccc4)cc3)c2c1

-- reply
1: 17%; 2: 40%; 3: 5%; 4: 4%; 5: 17%; 6: 0%

State recorded %Inh for all listed compounds.
1. CN1CCC(n2cnc(-c3ccc(F)cc3)c2-c2ccnc(NC3CCNCC3)n2)CC1
2. Cn1ccc2ncnc(Nc3ccc(Oc4cccc(Cl)c4)c(Cl)c3)c21
3. Cn1ccc2ncnc(Oc3ccc(NC(=O)Nc4cccnc4)c(Cl)c3)c21
4. C[C@@H]1CCN(C(=O)CO)C[C@@H]1N(C)c1ncnc2[nH]ccc12
5. COc1ccc(-c2oc3ncnc(N)c3c2-c2ccc(OC)cc2)cc1

-- reply
1. 96%
2. 0%
3. 0%
4. 0%
5. 10%

State recorded %Inh for all listed compounds.
1. Fc1ccc(Nc2nccc(-c3c(-c4ccc(Cl)cc4)nn4ncccc34)n2)cc1F
2. O=C(Nc1ccccc1F)NC1CCN(c2ccnc(Nc3ccc(F)cc3)n2)C1 (stereo not shown)

-- reply
63%
31%

----------
System: SGK2
Test settings: concentration: 1 μM, replicates: in singlicate; n = 1
# if value of %Inh reaches 6%, tag true (1); if it stays below, tag false (0)

Take a look at these entries with their results.
>>> print(df.to_string())
                                   molecule  class_label
0  CSc1nn2c(=O)cc(N3CCOCC3)nc2n1Cc1cccc(Cl)c1Cl [GSK2347225]     true (1)
1  Oc1ccc2ncnc(Nc3ccc(OCc4ccccc4)cc3)c2c1 [GI262866]    false (0)
2  CNc1nccc(-c2c(-c3ccc(F)cc3)ncn2CCCN2CCOCC2)n1 [SB-222516]     true (1)
3  Cl.Cl.c1ccc(-c2cc3ccncc3cc2OC2CCNCC2)cc1 [GSK1122999]     true (1)
4  FC(F)(F)c1ccc(-c2nn3ncccc3c2-c2ccnc(Nc3cccc(C(F)(F)F)c3)n2)cc1 [GW828205]    false (0)

-- ask I'd appreciate it if you could say whether CC(C)N1CCC(n2cnc(-c3ccc(F)cc3)c2-c2ccnc(N)n2)CC1 [SB-223132] has %Inh at least equal to 6%.
-- reply false (0)

-- ask I'd appreciate it if you could say whether N#Cc1ccc(Oc2ccc(Nc3ncnc4cc[nH]c34)cc2Cl)cc1 has %Inh at least equal to 6%.
-- reply true (1)

-- ask I'd appreciate it if you could say whether CC(C)(C)c1ccc(-n2cnc3c(N)ncnc32)cc1 [SKF-97263] has %Inh at least equal to 6%.
-- reply false (0)

----------
Tested on: JAK2(JH1domain-catalytic)
Test settings: concentration: 1 μM, replicates: in singlicate; n = 1
Please respond with reported %Inh for every item in the list.
Numbers only, in %.

Please review the following examples before continuing.
>>> df
                                   compound  test_result
0   Clc1cc(Nc2ncnc3cc[nH]c23)ccc1OCc1ccccn1           16
1  O=C(c1ccc(-c2cc(-c3c[nH]nc3-c3ccccn3)ccn2)cc1)N1CCCC1 [GW792479]            0
2  Cc1cccc(-c2nc(Nc3ccc4[nH]nnc4c3)c3ccccc3n2)n1 [GW867587]           22

State recorded %Inh for all listed compounds.
1. Fc1cccc(COc2ccc(Nc3ncnc4sc(-c5ccc[nH]5)cc34)cc2Cl)c1 [GW707818]
2. COc1ccc(NC(=O)Nc2ccc(C)c(-c3ccc(C(=O)Nc4ccncc4)cc3)c2)cc1 [GSK1398475]
3. Cl.c1ccc(Cn2ncc3cc(Nc4ncnc5ccccc45)ccc32)cc1 [GW273749]
4. COc1ccc(Nc2nccc(N3CCC(NC(=O)Nc4ccc5c(c4)OCO5)C3)n2)cc1 (stereo not drawn) [GSK1379745]
5. Cc1ccc(NC(=O)c2cccc(C#N)c2)cc1-c1ccc(C(=O)Nc2ccncc2)cc1 [GSK1398463]

-- reply
1. 100
2. 0
3. 11
4. 19
5. 39

-- ask Param item = CC(C)(C)OC(=O)NC1CCCN(c2cc(-c3ccc4c(N)n[nH]c4c3)nc(N)n2)C1 (stereo not drawn) [GSK2286096] ; retrieve measured %Inh.
-- reply 0

----------
Test system: LZK;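 also: kd values determined as follow-up on hits from a single-replicate KINOMEscan panel screen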
Construct: gene MAP3K13
Value type: Kd

-- ask Param item = Fc1cccc(COc2ccc(Nc3ncnc4sc(-c5ccc[nH]5)cc34)cc2Cl)c1 ; retrieve measured Kd.
-- reply > 10 µM
